DiI-LDL uptake in HepG2 cells, EC50 reference
target: human PCSK9 (proprotein convertase subtilisin kexin type 9) (human, UniProt Q8NBP7 31-692); test: cell-based or functional assay
Sequence (Q8NBP7 31-692 limits assumed): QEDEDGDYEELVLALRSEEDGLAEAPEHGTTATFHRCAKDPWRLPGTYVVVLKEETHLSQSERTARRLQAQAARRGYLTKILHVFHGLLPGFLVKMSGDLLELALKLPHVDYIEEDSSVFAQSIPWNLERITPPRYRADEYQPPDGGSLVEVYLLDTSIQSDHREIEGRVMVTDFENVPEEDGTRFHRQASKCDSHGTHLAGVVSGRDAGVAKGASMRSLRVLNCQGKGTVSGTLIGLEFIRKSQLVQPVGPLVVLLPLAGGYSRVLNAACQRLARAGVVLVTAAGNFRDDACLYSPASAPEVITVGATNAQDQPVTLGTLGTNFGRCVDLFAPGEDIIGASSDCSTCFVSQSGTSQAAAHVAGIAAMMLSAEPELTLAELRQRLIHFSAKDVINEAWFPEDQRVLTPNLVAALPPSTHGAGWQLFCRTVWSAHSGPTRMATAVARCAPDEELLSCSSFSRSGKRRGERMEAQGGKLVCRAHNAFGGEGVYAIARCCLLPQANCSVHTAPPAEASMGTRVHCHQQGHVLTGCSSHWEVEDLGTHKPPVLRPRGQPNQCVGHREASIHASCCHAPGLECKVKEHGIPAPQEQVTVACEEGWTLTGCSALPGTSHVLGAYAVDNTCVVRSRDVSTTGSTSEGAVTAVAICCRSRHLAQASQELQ
observed property: DiI-LDL uptake in HepG2 cells, EC50 (nM)

1. 2012A04 (designed binder) MGVSDVPRDLEVVAATPTSLLISWRPPSNGHGYYRITYGETGGNSPVQEFTVPVNEGTATISGLKPGVDYTITVYAVEFPFKWSGYYHRPISINYRTEIDKPSQHHHHHH; 130
2. 1459D05 (designed binder, also called ATI000891; ATI-891) MGVSDVPRDLEVVAATPTSLLISWPPPSHGYGYYRITYGETGGNSPVQEFTVPPGKGTATISGLKPGVDYTITVYAVEYPYKHSGYYHRPISINYRTEIDKPSQHHHHHH; 190
3. 2013E01 (designed binder, unmodified (not PEGylated) Adnectin; also called ATI001081) MGVSDVPRDLEVVAATPTSLLISWVPPSDDYGYYRITYGETGGNSPVQEFTVPIGKGTATISGLKPGVDYTITVYAVEFPWPHAGYYHRPISINYRTEIDKPSQHHHHHH; 160
4. 1784F03 (designed binder) MGVSDVPRDLEVVAATPTSLLISWRPPIHAYGYYRITYGETGGNSPVQEFTVPIVEGTATISGLKPGVDYTITVYAVEYTFKHSGYYHRPISINYRTEIDKPSQHHHHHH; 210
